target: Collagenase 3 (Homo sapiens); assay: Binding affinity to full length human recombinant MMP-13 using Mca-PLGL-Dpa-AR-NH2 as fluorogenic peptide substrate assessed as inhibition constant
What pKi was measured for each of the following?
Give bare numbers, as −log10 of the molar value.

Molecule: CC(C)[C@H](NC(=O)c1ccc(-c2ccc(CCc3nc4c(c(=O)[nH]3)CCC4)c(F)c2)o1)C(=O)NC1COC1
Numeric Readout: 7.91

Lab note: next molecule to report on.
For the molecule CC(C)[C@H](NC(=O)c1ccc(-c2ccc(CNc3nc4c(c(=O)[nH]3)CCC4)c(F)c2)o1)C(=O)NC1COC1 , give its reported pKi.
7.99

====

experiment: Half life in iv dosed rat; format: ADME, organism-based; details: in vivo
Reported Metric: half-life (h)
Numbers only, in h.

Provide only the value of recorded half-life for COC(=O)Nc1nc2cc(C(=O)c3ccc(N(C)C4COC4)cc3)ccc2[nH]1
5.5

====

assay: Inhibition of GST fused Bcl-xL (unknown origin) incubated for 5 min by TR-FRET assay; design: species or system Homo sapiens
Field: IC50. Provide a value for each of the compounds that follow.
Numbers only, in nM.

Molecule: CC1(C)CCC(c2ccc(Cl)cc2)=C(CN2CCN(c3ccc(C(=O)NS(=O)(=O)c4ccc(OCC5(CN6CC(F)(F)C6)COC5)c(S(=O)(=O)C(F)(F)F)c4)cc3)CC2)C1
Units Of Measure: nM
Numeric Readout: 105

Moving on to another compound below.
Supply measured IC50 of CC1(C)CCC(c2ccc(Cl)cc2)=C(CN2CCN(c3ccc(C(=O)NS(=O)(=O)c4ccc(N[C@H](CCN5CCOCC5)CSc5ccccc5)c(S(=O)(=O)C(F)(F)F)c4)cc3)CC2)C1 in your reply.
8.2

====

test: Oral bioavailability in monkey at 5 mg/kg; assay type: ADME, organism-based, Macaca mulatta; conditions: rhesus monkey, in vivo
Reported Metric: bioavailability (%)
Answers are plain numbers, in %.

Identify measured bioavailability corresponding to CC(C)(O)C#Cc1cnc2c(c1)[C@]1(COC(N)=N1)c1cc(-c3cccnc3F)ccc1O2
101

====

experiment: Oral bioavailability in rat at 2 mg/kg; assay type: ADME, organism-based; conditions: in vivo
Reported Metric: bioavailability

Using the record for CC(C)(O)C#Cc1cnc2c(c1)[C@]1(COC(N)=N1)c1cc(-c3cccnc3F)ccc1O2 , state its measured bioavailability.
70%

Hey, just so you know, these numbers are from ChEMBL document CHEMBL5634110.
